The compounds listed here are annotated with their pIC50.
molecular target: human JAK3 kinase domain (JH1) (Homo sapiens); construct: recombinantly generated catalytic kinase (also known as JH1) domain of human JAK1, JAK2, JAK3 and TYK2; assay: JH1 biochemical assay for JAK3 (ADP-Glo kinase assay, recombinant JH1 catalytic domain, JAK3-974 peptide, 4 μM ATP); conditions: JH1 kinase domain, ADP-Glo
Sequence (P52333 822-1111 limits assumed): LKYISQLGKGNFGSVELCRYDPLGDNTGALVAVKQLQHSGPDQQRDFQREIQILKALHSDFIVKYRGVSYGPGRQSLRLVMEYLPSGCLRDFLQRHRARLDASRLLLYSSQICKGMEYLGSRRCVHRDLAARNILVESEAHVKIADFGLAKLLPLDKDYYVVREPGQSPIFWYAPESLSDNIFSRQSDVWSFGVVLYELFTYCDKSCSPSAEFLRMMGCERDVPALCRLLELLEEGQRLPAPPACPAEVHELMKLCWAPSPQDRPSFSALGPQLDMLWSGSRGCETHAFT
pIC50: −log10 of the molar value. Structures can show the parent of a compound that is named as a salt.
Endpoint label: pIC50

> print(dat)
                                    compound                              assay.target  endpoint.label      observed
 1  C[C@@H]1CN(c2ccnn3cc(-c4ccc(=O)n(C)c4)cc23)C(=O)[C@]1(C#N)C1CC1  human JAK3 kinase domain (JH1) (Homo sapiens)           pIC50  6.00 to 7.00
 2  CC[C@@H]1C[C@@](C#N)(C2CC2)C(=O)N1c1ccnn2cc(-c3cnn(C)c3)cc12  human JAK3 kinase domain (JH1) (Homo sapiens)           pIC50  5.30 to 6.00
 3  Cn1cc(-c2cc3c(N4CC[C@H](C5CC5)C4=O)ccnn3c2)cn1 (single isomer, unassigned)  human JAK3 kinase domain (JH1) (Homo sapiens)           pIC50        < 5.00
 4  C[C@@H]1CN(c2ccnn3cc(-c4cnn(C)n4)cc23)C(=O)[C@]1(C#N)C1CC1 [Example 99, trifluoroacetate]  human JAK3 kinase domain (JH1) (Homo sapiens)           pIC50  6.00 to 7.00
 5  C[C@@H]1CN(c2ccnn3cc(-c4ncn(C)n4)cc23)C(=O)[C@]1(C#N)C1CC1 [Example 115, trifluoroacetate]  human JAK3 kinase domain (JH1) (Homo sapiens)           pIC50  5.00 to 5.30
 6  C[C@@H]1CN(c2ccnn3cc(-c4ccn(C)c(=O)c4)cc23)C(=O)[C@]1(C#N)C1CC1  human JAK3 kinase domain (JH1) (Homo sapiens)           pIC50  6.00 to 7.00
 7  C[C@@H]1CN(c2ccnn3cc(-c4ccnc(F)c4)cc23)C(=O)[C@]1(C#N)C1CC1  human JAK3 kinase domain (JH1) (Homo sapiens)           pIC50  6.00 to 7.00
 8  Cc1nc(-c2cn3nccc3c(N3C[C@@H](C)[C@@](C#N)(C4CC4)C3=O)n2)cs1  human JAK3 kinase domain (JH1) (Homo sapiens)           pIC50  6.00 to 7.00
 9  COc1cc(-c2cc3c(N4CC[C@@](C#N)(C5CC5)C4=O)ccnn3c2)ccn1  human JAK3 kinase domain (JH1) (Homo sapiens)           pIC50  6.00 to 7.00
10  C[C@@H]1CN(c2ccnn3cc(-c4cnc5cnccn45)cc23)C(=O)[C@]1(C#N)C1CC1 [Example 116, trifluoroacetate]  human JAK3 kinase domain (JH1) (Homo sapiens)           pIC50  6.00 to 7.00
11  C[C@@H]1CN(c2ccnn3cc(-c4cnc5cc(C#N)ccn45)cc23)C(=O)[C@]1(C#N)C1CC1 [Example 103, trifluoroacetate]  human JAK3 kinase domain (JH1) (Homo sapiens)           pIC50        < 5.00

Reference for the values: patent US20260297085A1
